The entries below come with measured log10(IC50) values attached.
# System name: C-C chemokine receptor type 3 (Homo sapiens, UniProt P51677)
# Sequence (P51677 whole entry): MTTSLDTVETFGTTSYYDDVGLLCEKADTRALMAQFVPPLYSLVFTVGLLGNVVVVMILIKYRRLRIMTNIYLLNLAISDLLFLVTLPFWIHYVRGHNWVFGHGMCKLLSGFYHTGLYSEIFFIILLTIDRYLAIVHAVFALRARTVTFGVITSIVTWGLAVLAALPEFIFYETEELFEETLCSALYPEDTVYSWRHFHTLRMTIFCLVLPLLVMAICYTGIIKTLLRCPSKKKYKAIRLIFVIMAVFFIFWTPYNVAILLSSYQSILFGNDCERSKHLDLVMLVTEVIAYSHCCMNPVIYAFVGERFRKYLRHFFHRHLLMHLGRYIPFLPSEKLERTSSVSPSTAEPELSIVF
# Protocol: In vitro inhibition if C-C chemokine receptor type 3 (CCR3) using 150p M [125I]-labeled human eotaxin
Hi team, quick reminder: these entries are log10 of IC50 (nM).

Q. So what's the measured log10(IC50) for this one? CC(=O)c1cccc(NC(=O)NCCCN2CC[C@H](Cc3ccccc3)C[C@@H]2C(C)(C)O)c1
A. 2.30

Q. So what's the measured log10(IC50) for this one? Fc1ccc(CCCN2CC[C@@H]3[C@H](C2)c2cccc4c2N3CC4)cc1
A. 2.70

Q. So what's the measured log10(IC50) for this one? COc1cccc(NC(=O)N2CCNC(CN3CCC(Cc4ccc(F)cc4)CC3)C2)c1 (racemic)
A. 1.48

Q. So what's the measured log10(IC50) for this one? Cc1ccc(CC2CCN(CCCNC(=O)Nc3cccc(C#N)c3)CC2)cc1
A. 2.70

Q. So what's the measured log10(IC50) for this one? COc1cccc(NC(=O)N2CCC(CN3CCC(Cc4ccccc4)CC3)CC2)c1
A. 3.20

Q. So what's the measured log10(IC50) for this one? O=S(=O)(NCCCN1CC[C@@H]2[C@H](C1)c1cccc3c1N2CC3)c1ccc(F)cc1
A. 4.00

Q. So what's the measured log10(IC50) for this one? COc1ccc(C(=O)NCCCCN2CC[C@@H]3[C@H](C2)c2cccc4c2N3CC4)cc1
A. 3.71

Q. So what's the measured log10(IC50) for this one? CC(=O)c1cccc(NC(=O)NCCCN2CC[C@H](Cc3ccccc3)C[C@@H]2[C@@H](O)C(C)C)c1
A. 1.70

Q. So what's the measured log10(IC50) for this one? N#Cc1cccc(NC(=O)NCCCCN2CCC(Cc3ccccc3)CC2)c1
A. 2.70

Q. So what's the measured log10(IC50) for this one? O=C(NCCCCN1CC[C@@H]2[C@H](C1)c1cccc3c1N2CC3)C12CC3CC(CC(C3)C1)C2
A. 3.82

Q. So what's the measured log10(IC50) for this one? O=S(=O)(NCCCCN1CC[C@@H]2[C@H](C1)c1cccc3c1N2CC3)c1ccc(F)cc1
A. 3.81

Q. So what's the measured log10(IC50) for this one? O=C(NCCCN1CCC(Cc2ccc(F)cc2)CC1)Nc1ccccc1
A. 1.48

Q. So what's the measured log10(IC50) for this one? N#Cc1ccc(C(=O)NCCCCN2CCC(Cc3ccccc3)CC2)cc1
A. 3.11
